Test system: β-hematin formation
test details: Inhibition of β-hematin formation
Format: biochemical
protocol conditions: n = 3, read-out: IC50: Half maximal inhibitory concentration (βHF)
pIC50: −log10 of the molar value.
Reported values of pIC50 for individual entries
property: pIC50

>>> numeric_value("Cc1ccc([N+](=O)[O-])c(C(=O)OCCNc2ccnc3cc(Cl)ccc23)c1 [4k]")
5.37
>>> numeric_value("COc1ccccc1C(=O)OCCNc1ccnc2cc(Cl)ccc12 [4a]")
5.38
>>> numeric_value("COc1cc(OC)c(C(=O)OCCNc2ccnc3cc(Cl)ccc23)cc1OC [4f]")
5.48
>>> numeric_value("COc1cc(C(=O)OCCNc2ccnc3cc(Cl)ccc23)cc(OC)c1OC [4g]")
5.53
>>> numeric_value("O=C(OCCNc1ccnc2cc(Cl)ccc12)c1ccccc1F [4i]")
5.40
>>> numeric_value("Cc1cc(C)cc(C(=O)OCCNc2ccnc3cc(Cl)ccc23)c1 [4j]")
5.50
>>> numeric_value("O=C(OCCNc1ccnc2cc(Cl)ccc12)c1ccc(C(F)(F)F)cc1 [4m]")
5.49
>>> numeric_value("COc1ccc(C(=O)OCCNc2ccnc3cc(Cl)ccc23)c(OC)c1 [4d]")
5.07
>>> numeric_value("COc1ccc(C(=O)OCCNc2ccnc3cc(Cl)ccc23)cc1 [4b]")
5.51
>>> numeric_value("CC(C)(C)c1ccc(C(=O)OCCNc2ccnc3cc(Cl)ccc23)cc1 [4l]")
5.45
